Test system: rabbit aorta rings
Procedure Text: Vasorelaxant effect in vitro (phenylephrine-contracted aorta rings)
Experimental Setup: Oryctolagus cuniculus, phenylephrine contraction, read-out: IC50 (concentration reducing height of phenylephrine contraction by 50%)
Recorded Endpoint: pIC50
Give bare numbers, as −log10 of the molar value.

Completed entries (count: 2):
{"Test Smiles": "COC(=O)N(C)c1c(N)nc(-c2nn(Cc3ccccc3F)c3ncc(F)cc23)nc1N", "Measured On": "rabbit aorta rings", "Reported Measurement": 6.60}
{"Test Smiles": "COC(=O)N(CC(F)(F)F)c1c(N)nc(-c2nn(Cc3ccccc3F)c3ncc(F)cc23)nc1N", "Measured On": "rabbit aorta rings", "Reported Measurement": 6.29}

Please turn your attention to the following entry.
Lookup: // Input: COC(=O)Nc1c(N)nc(-c2nn(Cc3ccccc3F)c3ncc(F)cc23)nc1N . Output its pIC50 only.
Found: 6.02
